I'd be grateful if you could share measured Rate constant inhibition (ki), PSA for these entries.
Tested on: carboxylesterase (CbE) in blood plasma
method summary: Inhibition rate constant (ki), blood plasma CbE (PSA substrate)
Format: biochemical, Japanese quail (Coturnix coturnix japonica)
assay context: 4 mM methomyl, 2 mM parathion, malathion, trichlorfon, 1–60 min, 25°C, mean ± SE

- molecule: "CNC(=O)ON=C(C)SC"
  Rate constant inhibition (ki), PSA: "345.3 ± 12.4 × 10^−3 min^−1"

For every item below, please supply its Rate constant inhibition (ki), PSA.
1. COP(=O)(OC)C(O)C(Cl)(Cl)Cl (stereo not shown)
2. CCOC(=O)CC(SP(=S)(OC)OC)C(=O)OCC (stereo not shown)

Response given:
1: 976.9 ± 8.9 × 10^−3 min^−1; 2: 175.6 ± 16.0 × 10^−3 min^−1

Challenge: Please report Rate constant inhibition (ki), PSA for the following molecule: `CCOP(=S)(OCC)Oc1ccc([N+](=O)[O-])cc1`
Response given: 453.2 ± 5.6 × 10^−3 min^−1

All values here come from paper PMC3913017.
